Biological target: T1, T cell receptor (TCR) Vγ9 (TRGV9) (human, UniProt Q99603 21-122)
T1 sequence (looked up): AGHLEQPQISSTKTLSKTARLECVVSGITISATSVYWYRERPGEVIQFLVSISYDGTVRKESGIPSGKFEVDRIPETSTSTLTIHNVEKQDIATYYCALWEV
Assay: cell-based or functional assay
Measurement type: Granzyme B, Luminex (supernatant)
Answers are plain numbers.

{"Binder": "VG9B80 (antibody, human IgG1, kappa, V domains shown) VH: EVQLVQSGGGLVKSGGSLRLSCAASGFTFSTYSMNWVRQAPGKGLEWVSSISSSSSYIFYADSVKGRIIISRDNAKNSLYLQMNSVRADDTAVYYCAKDGELGVFDYWGQGTLVTVSS VL: EIVLTQSPGTLSLSAGERATLSCRASQSISSSYLAWYQQKPGQAPRVLIYGPSGRATGIPDRFRGSGSGTDFTLTISRLEPEDFAVYYCQQFGRSPLTFGGGTKVEIKR", "Granzyme B, Luminex (supernatant)": 3010}

Q. Would you mind telling me what Granzyme B, Luminex (supernatant) value was observed for VG9B54 (antibody, human IgG1, kappa, V domains shown) VH: EVQLVESGGGLVKPGGSLRLSCAASGFAFSSYSLTWVRQAPGKGLEWVSSISSSSSYIFYADSVKGRFTISRDNAKNSLYLQMNSLRAEDTAVYYCATDGELGPFDYWGQGTTVTVSS VL: EIVMTQSPGTLSLSPGERATLSCRASQSVSSSYLAWFQQKPGQAPRRLIYGASSRATGIPDRFSGSGSGTDFTLTISRLEPEDFAVYYCQQYGRSPLTFGGGTKVEIKR ?
A. 3100
